Measured viscosity by item
assay: xn = mol fraction of the nth substance listed; details: 318.15 K; 101 kPa; x2 = 0.25
Give a bare numeral; the unit mPa·s is implied.

# example entries with known answers
compound="CCCCCCCCO + CCCCO" unit_symbol=mPa·s observed_result=3.22
compound="CCCCCCCCO + CO" unit_symbol=mPa·s observed_result=2.87
compound="CCCCCCCCO + CCO" unit_symbol=mPa·s observed_result=2.979

// next item, viscosity requested
Qu. For CCCCCCCCO + CCCO , what is its reported viscosity?
Ans. 3.12

* * *

assay: xn = mol fraction of the nth substance listed; conditions: 298.15 K; 101 kPa; x2 = 0.4
MEASURE: viscosity (mPa·s)
# value in mPa·s; strip the unit string

Illustrative cases are given below, each with its answer.
molecule="CCCCCCCCO + CCCCO" measure=viscosity observed_result=5.123
molecule="CCCCCCCCO + CO" measure=viscosity observed_result=3.789
molecule="CCCCCCCCO + CCO" measure=viscosity observed_result=4.202
molecule="CC#N + CO" measure=viscosity observed_result=0.343

Qu. Consider the molecule shown here: CCCCCCCCO + CCCO What is its recorded viscosity?
Ans. 4.851

* * *

Here, each record is paired with measured viscosity data.
test: xn = mol fraction of the nth substance listed; conditions: 298.15 K; 101 kPa; x2 = 0.3
Numeric only. Scale: mPa·s

Check out these entries, answers already filled in.
compound="CCCCCCCCO + CCCO" observed_result=5.438
compound="CCCCCCCCO + CO" observed_result=4.581
compound="CCCCCCCCO + CCCCO" observed_result=5.646

Then this compound:
Qu. Return reported viscosity; argument: CCCCCCCCO + CCO
Ans. 4.903

* * *

assay: xn = mol fraction of the nth substance listed; conditions: 298.15 K; 101 kPa; x2 = 0.5
MEASURE: viscosity (mPa·s)
Your answer should be a plain number; it is taken to be in mPa·s.

compound="CCCCCCCCO + CO" observed_result=3.064
compound="CCCCCCCCO + CCCO" observed_result=4.291
compound="CCCCCCCCO + CCCCO" observed_result=4.622

Okay, now this compound:
Qu. Consider the compound CCCCCCCCO + CCO and give its measured viscosity.
Ans. 3.552

* * *

test: xn = mol fraction of the nth substance listed; conditions: 308.15 K; 101 kPa; x2 = 0.15
viscosity: recorded values
Hi! Could you send only the number? It should be in mPa·s, unit omitted.

Qu. Return reported viscosity; argument: CCCCCCCCO + CCO
Ans. 4.466

Qu. Which value of viscosity has been reported for CCCCCCCCO + CCCO in the records?
Ans. 4.394

Qu. # input compound: CCCCCCCCO + CO ; wanted: its viscosity
Ans. 4.331

Qu. Any idea what viscosity was measured for CCCCCCCCO + CCCCO ?
Ans. 4.678

* * *

assay: xn = mol fraction of the nth substance listed; conditions: 298.15 K; 101 kPa; x2 = 0.15
MEASURE: viscosity (mPa·s)
Number in mPa·s, nothing else.

molecule="CCCCCCCCO + CCO" measure=viscosity observed_result=6.058
molecule="CCCCCCCCO + CCCCO" measure=viscosity observed_result=6.475
molecule="CCCCCCCCO + CO" measure=viscosity observed_result=5.895

Field: next molecule
Qu. What value of viscosity has been reported for the following molecule? CCCCCCCCO + CCCO
Ans. 6.37
